test: chemical genetic growth profiling, strain panel (AID 1159580);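 also: tested at 20 µM; growth read once vehicle control cultures reached saturation at 30 °C; 1 = growth at the plate median or of vehicle wells; lower values mean less growth of the strain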; conditions: S. cerevisiae deletion strains, growth OD, locus YJL168C, strain set2, stronger effect = lower value
Among all 5,500 compounds or so, about 2,000 (36%) were called active. Inconclusive results (about 18%) are left out. Some of the results follow.

- compound: "CCCCC(=O)O[C@]1(C(=O)CO)[C@@H](C)CC2C3CCC4=CC(=O)C=C[C@]4(C)[C@@]3(F)C(O)C[C@@]21C (stereo not given in full)"
  normalized growth: 0.983
- compound: "NC[C@H]1O[C@H](O[C@H]2[C@H](O)[C@@H](O[C@H]3O[C@H](CO)[C@@H](O)[C@H](N)[C@H]3O)[C@H](N)C[C@@H]2N)[C@H](N)[C@@H](O)[C@@H]1O"
  normalized growth: 0.984
- compound: "CCc1ccc2c(O)c3c(cc2c1C(=O)OC)C(=O)c1c(O)ccc(O)c1C3=O"
  normalized growth: 0.982
- compound: "O=C(CCCN1CCC2(CC1)C(=O)NCN2c1ccccc1)c1ccc(F)cc1"
  normalized growth: 0.986
- compound: "CC(C)Nc1nc(Cl)nc(NC(C)C)n1"
  normalized growth: 1.01
- compound: "Nc1ccc(S(=O)(=O)Nc2ncccn2)cc1"
  normalized growth: 0.992
- compound: "CNC[C@H](O)c1cccc(O)c1"
  normalized growth: 1.02
- compound: "CSc1nc(NC(C)C)nc(NC(C)C)n1"
  normalized growth: 1
- compound: "CC(=O)OCC(=O)[C@@]1(O)CCC2C3C[C@H](C)C4=CC(=O)C=CC4(C)C3[C@@H](O)CC21C (stereo not given in full)"
  normalized growth: 1.01
- compound: "CC(=O)OC1CC[C@@]2(C)C(CCC3C2CC[C@]2(C)C(C4=CC(=O)OC4)C(OC(C)=O)CC32O)C1 (stereo not given in full)"
  normalized growth: 1.01
- compound: "COc1ccccc1N1CCN(CCCNc2cc(=O)n(C)c(=O)n2C)CC1"
  normalized growth: 0.998
- compound: "CC1=CC(=O)C(C(C)C)=CC1=O"
  normalized growth: 0.942
- compound: "CCOC(=O)C1=C(O)C(=O)N(Cc2ccccc2)C1"
  normalized growth: 1.01
- compound: "C[C@]12CCC3C(CC[C@]4(O)C[C@@H](O)CC[C@]34C=O)[C@@]1(O)CCC2C1=CC(=O)OC1 (stereo not given in full)"
  normalized growth: 0.982
- compound: "COc1ccc(-c2cc(=O)c3c(O)cc(O)cc3o2)cc1"
  normalized growth: 0.999
- compound: "COC(=O)NC(=S)Nc1ccccc1NC(=S)NC(=O)OC"
  normalized growth: 1.02
- compound: "CC1(C)S[C@@H]2C(N3C(=O)[C@@H](c4ccccc4)NC3(C)C)C(=O)N2[C@H]1C(=O)O (stereo not given in full)"
  normalized growth: 1.03
- compound: "Nc1nc(/C(=C/CC(=O)O)C(=O)N[C@@H]2C(=O)N3C(C(=O)O)=CCS[C@H]23)cs1"
  normalized growth: 0.99
- compound: "CCC(=O)OCC(=O)[C@@]1(OC(=O)CC)[C@@H](C)CC2C3CCC4=CC(=O)C=C[C@]4(C)C3(F)[C@@H](O)C[C@@]21C (stereo not given in full)"
  normalized growth: 0.956
- compound: "O=C(O)c1cc(O)ccc1O"
  normalized growth: 0.998

Provenance of the data: PubChem BioAssay AID1159580
